Each recorded value in this set is attributed to ChEMBL document CHEMBL1134115.

- Tested on: Mycobacterium tuberculosis
- assay-notes: Antimycobacterial activity against Mycobacterium tuberculosis strain resistant to rifampin (RMP)
- Assay type: functional
property-label: MIC

structure-smiles-string: CO[C@H]1/C=C/O[C@@]2(C)Oc3c(C)c(O)c4c(O)c(c(/C=N/N5CCN(C)CC5)c(O)c4c3C2=O)NC(=O)/C(C)=C\C=C\[C@H](C)[C@H](O)[C@@H](C)[C@@H](O)[C@@H](C)[C@H](OC(C)=O)[C@@H]1C
MIC: > 8 µg/mL

Kindly give each listed record's MIC.
1. Nc1cccc(S(=O)(=O)n2cnc3c(S)ncnc32)c1
2. CN(C)S(=O)(=O)n1cnc2c(=S)[nH]cnc21
3. CC(=O)Nc1ccc(S(=O)(=O)n2cnc3c(S)ncnc32)cc1
4. O=[N+]([O-])c1ccc(Sn2cnc3c(S)ncnc32)cc1
5. O=S(=O)(c1ccc(Cl)cc1)n1cnc2c(S)ncnc21

1. 12.5 µg/mL
2. 6.25 µg/mL
3. 12.5 µg/mL
4. 0.78 µg/mL
5. 12.5 µg/mL
